system: Pseudomonas aeruginosa; experiment: In vitro antibacterial activity against Pseudomonas aeruginosa 9027; format: functional; details: Pseudomonas aeruginosa; read-out: MIC
Overview of recorded MIC for various compounds

- compound: "C[C@@H](O)[C@H]1C(=O)N2C(C(=O)O)=C(S[C@@H]3CN[C@H](C4CC[N+](C)(C)O4)C3)[C@H](C)[C@H]12.[Cl-] (stereo partly specified)"
  MIC / µg/mL: 0.391
- compound: "C[C@@H](O)[C@H]1C(=O)N2C(C(=O)O)=C(S[C@@H]3CN[C@H](C4CC(CO)=NO4)C3)[C@H](C)[C@H]12 (stereo in doubt; form 1)"
  MIC / µg/mL: 0.391
- compound: "C[C@@H](O)[C@H]1C(=O)N2C(C(=O)O)=C(S[C@@H]3CN[C@H](C(=O)N(C)C)C3)[C@H](C)[C@H]12 [MEROPENEM]"
  MIC / µg/mL: 0.195
- compound: "C[C@@H](O)[C@H]1C(=O)N2C(C(=O)O)=C(S[C@@H]3CN[C@H](C4CCN(C)O4)C3)[C@H](C)[C@H]12 (stereo partly specified)"
  MIC / µg/mL: 0.391
- compound: "CCOC(=O)C1=NOC([C@@H]2C[C@H](SC3=C(C(=O)O)N4C(=O)[C@H]([C@@H](C)O)[C@H]4[C@H]3C)CN2)C1 (stereo partly specified)"
  MIC / µg/mL: 0.781
- compound: "C[C@@H](O)[C@H]1C(=O)N2C(C(=O)O)=C(S[C@@H]3CN[C@H](C4CC[N+](C)(CC(N)=O)O4)C3)[C@H](C)[C@H]12.[Cl-] (stereo partly specified)"
  MIC / µg/mL: 0.195
